src = patent US20110165145A1

Entries annotated with measured pKd
Biological target: T1, IGF-IIE (amino acids 1-104 of pro-IGF-II) (human, UniProt P01344 25-128)
T1 construct: Biotinylated in the selections; also called IGF-IIE (104aa)
T1 sequence (P01344 25-128): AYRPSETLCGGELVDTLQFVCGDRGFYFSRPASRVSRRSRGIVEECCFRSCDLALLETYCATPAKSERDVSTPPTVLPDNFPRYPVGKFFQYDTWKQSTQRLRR
Test: competition SPR (BIACORE T100), affinity in solution, free ligand read on huIR-A ECD; measurement 2
Scale: pKd equals -log10([C]), with [C] in mol/L.

# Binder, pKd
rows = [
    ("M0073-C11 Fab (Fab, V domains shown) VH: EVQLLESGGGLVQPGGSLRLSCAASGFTFSPYDMWWVRQAPGKGLEWVSSISSSGGITAYADSVKGRFTISRDNSKNTLYLQMNSLRAEDTAVYYCARAGYSSSWGYYYYGMDVWGQGTTVTVSS VL: QSALTQPPSVSVSPGQTASITCSGDRLGDKYASWYQQKPGQSPVLVIYQDTKRPSGIPERFSGSNSGSTATLTISGTQAMDEADYYCQAWDSSTVVFGGGTKLTVL", 7.72),
]

Please look at the following binder next.
// M0072-C06 Fab (Fab, V domains shown, soluble Fab (sFab); also called R0032-A09) VH: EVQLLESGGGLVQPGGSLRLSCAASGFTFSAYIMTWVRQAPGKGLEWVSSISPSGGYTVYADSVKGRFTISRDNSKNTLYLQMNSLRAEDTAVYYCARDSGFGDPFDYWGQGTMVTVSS VL: DIQMTQSPSSLSASVGDRVTITCRASQSIRNYLNWYQQKPGKAPKLLIYAASKLEDGVPSRFSGSGTGTDFTLTIRSLQPEDFASYFCQQSYSSPGITFGPGTKVEIKR : pKd value = 8.98
